biological target: DGKα (Homo sapiens)
Sequence (P23743 with tags, fused parts or gaps): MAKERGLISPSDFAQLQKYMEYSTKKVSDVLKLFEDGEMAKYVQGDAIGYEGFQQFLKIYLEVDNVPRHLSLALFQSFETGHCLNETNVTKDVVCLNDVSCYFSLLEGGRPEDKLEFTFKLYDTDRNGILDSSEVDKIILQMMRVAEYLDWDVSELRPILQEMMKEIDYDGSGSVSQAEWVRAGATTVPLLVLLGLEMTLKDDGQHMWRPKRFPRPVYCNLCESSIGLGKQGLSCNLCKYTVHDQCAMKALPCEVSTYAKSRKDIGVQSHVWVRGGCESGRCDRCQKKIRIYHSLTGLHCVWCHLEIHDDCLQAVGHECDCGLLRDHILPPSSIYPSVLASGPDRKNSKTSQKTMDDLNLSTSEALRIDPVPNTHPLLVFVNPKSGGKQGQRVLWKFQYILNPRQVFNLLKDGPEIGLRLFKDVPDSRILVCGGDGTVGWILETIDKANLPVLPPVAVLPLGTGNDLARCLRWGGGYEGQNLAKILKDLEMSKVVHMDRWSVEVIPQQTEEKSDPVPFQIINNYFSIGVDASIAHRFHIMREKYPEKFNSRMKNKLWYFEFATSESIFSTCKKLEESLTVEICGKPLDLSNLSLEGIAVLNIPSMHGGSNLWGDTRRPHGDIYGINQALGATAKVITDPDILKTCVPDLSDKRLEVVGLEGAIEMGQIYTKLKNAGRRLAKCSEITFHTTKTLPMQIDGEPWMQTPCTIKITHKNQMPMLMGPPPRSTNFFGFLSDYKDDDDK
pIC50: −log10 of the molar value.
Please use fulfilled whenever pIC50 is not below 8, and not fulfilled whenever it is.

moleculeSmiles | targetUnderTest | classLabel
CN1CCN(c2ccc(OC3CCN(c4c(C#N)c(=O)n(C)c5ccccc45)CC3)cc2)C(=O)C1 | DGKα (Homo sapiens) | not fulfilled
Cn1c(=O)c(C#N)c(N2CCC(Oc3ccccc3)CC2)c2ccc(Br)cc21 | DGKα (Homo sapiens) | fulfilled
Cn1c(=O)c(C#N)c(N2CCC(C)(Oc3ccc(Br)cc3)CC2)c2ccccc21 | DGKα (Homo sapiens) | not fulfilled
Cn1c(=O)c(C(N)=O)c(N2CCC(Oc3ccc(OC(F)(F)F)cc3)CC2)c2ccc(F)cc21 | DGKα (Homo sapiens) | fulfilled
